observedProperty: melting point

Study these solved cases before continuing.
compound	observedProperty	observedValue
COC(=O)NCCNC(=O)c1cc(C)c(C(c2cc(F)ccc2F)S(=O)(=O)c2ccc(F)cc2)cn1 (stereo not shown) [Example 84]	melting point	167 to 169 °C
Cc1cc(C(=O)N(C)CCO)ncc1C(c1cc(F)ccc1F)S(=O)(=O)c1ccc(F)cc1 (stereo not shown) [Example 19]	melting point	123 to 125 °C
CC(=O)OCNC(=O)c1cc(C)c(C(c2cc(F)ccc2F)S(=O)(=O)c2ccc(F)cc2)cn1 (stereo not shown) [Example 86]	melting point	111 to 113 °C

Per the record, Cc1cc(C(=O)NCCC(=O)O)ncc1C(c1cc(F)ccc1F)S(=O)(=O)c1ccc(F)cc1 (stereo not shown) [Example 81] has melting point of 223 to 226 °C

So for COc1ccc(S(=O)(=O)C(c2cnc(C(=O)O)cc2C)c2cc(F)ccc2F)cc1 (stereo not shown) [Example 42] , the logged melting point turned out to be 194 to 195 °C

// sample Cc1cc(C(=O)N(C)C)ncc1C(c1cc(F)ccc1F)S(=O)(=O)c1ccc(Cl)cc1 (stereo not shown) [Example 5] , its melting point was 207 to 208 °C

Reported melting point of CCNC(=O)c1cc(C)c(C(c2cc(F)ccc2F)S(=O)(=O)c2ccc(F)cc2)cn1 (stereo not shown) [Example 16] : 191 to 193 °C

Looking up Cc1cc(C(=O)NCO)ncc1C(c1c(F)ccc(F)c1F)S(=O)(=O)c1ccc(Cl)cc1 (stereo not shown) [Example 120] , I see its melting point listed as 177 to 178 °C

Cc1cc(C(=O)NCCO)ncc1C(c1c(F)ccc(F)c1F)S(=O)(=O)c1ccc(F)cc1 (stereo not shown) [Example 94] has a reported melting point of 164 to 165 °C

# melting point (compound: Cc1cc(C(=O)NCO)ncc1C(c1c(F)ccc(F)c1F)S(=O)(=O)c1ccc(OC(F)(F)F)cc1 (stereo not shown) [Example 124] ) is 140 to 141 °C

melting point reported for this compound COc1ccc(S(=O)(=O)C(c2cnc(C(=O)NCCO)cc2C)c2cc(F)ccc2F)cc1 (stereo not shown) [Example 43] : 134 to 135 °C

Record Cc1cc(C(=S)N(C)C)ncc1C(c1cc(F)ccc1F)S(=O)(=O)c1ccc(F)cc1 (stereo not shown) [Example 92] . Reported melting point: 161 to 164 °C

// sample Cc1cc(C(=O)NCO)ncc1C(c1c(F)ccc(F)c1F)S(=O)(=O)c1ccc2ccoc2c1 (stereo not shown) [Example 127] , its melting point was 185 to 186 °C (dec.)

Noted for Cc1cc(C(=O)NCO)ncc1C(c1c(F)ccc(F)c1F)S(=O)(=O)c1ccc(F)c(F)c1 (stereo not shown) [Example 122] : its melting point reads 119 to 120 °C

Looking up Cc1cc(C(=O)NCOC(=O)CO)ncc1C(c1cc(F)ccc1F)S(=O)(=O)c1ccc(F)cc1 (stereo not shown) [Example 109] , I found its melting point recorded as 84 °C

====

observedProperty: melting point

Some solved cases for reference:
compound	observedValue
Cc1cc(C(=O)NCO)ncc1C(c1cc(F)ccc1F)S(=O)(=O)c1ccc(F)cc1 (stereo not shown)	164 to 166 °C
Cc1cc(C(=O)NC(CO)CO)ncc1C(c1cc(F)ccc1F)S(=O)(=O)c1ccc(F)cc1 (stereo not shown)	150 to 152 °C
Cc1cc(C(N)=O)ncc1C(c1c(F)ccc(F)c1F)S(=O)(=O)c1ccc(F)c(F)c1 (stereo not shown)	200 to 201 °C
Cc1cc(C(=O)NCO)ncc1C(c1c(F)ccc(F)c1F)S(=O)(=O)c1ccc(C(F)(F)F)cc1 (stereo not shown)	190 to 192 °C
CNC(=O)c1cc(C)c(C(c2cc(F)ccc2F)S(=O)(=O)c2ccc(Cl)cc2)cn1 (stereo not shown)	200 to 201 °C

The compound listed as Cc1cc(C(=O)NCO)ncc1C(c1c(F)ccc(F)c1F)S(=O)(=O)c1ccc(C(F)(F)F)nc1 (stereo not shown) has a reported melting point of 181 to 182 °C

For record Cc1cc(C(N)=O)ncc1C(c1cc(F)ccc1F)S(=O)(=O)c1ccc(Cl)cc1 (stereo not shown) the listed melting point is 241 to 242 °C

Entry CCOC(=O)c1cc(C)c(C(c2cc(F)ccc2F)S(=O)(=O)c2ccc(F)cc2)cn1 (stereo not shown) , melting point reported as 151 to 153 °C

compound CNC(=O)c1cc(C)c(C(c2cc(F)ccc2F)S(=O)(=O)c2ccc(F)cc2)cn1 (stereo not shown) , melting point observed: 201 to 202 °C

Input Cc1cc(C(=O)NCOCc2cccnc2)ncc1C(c1cc(F)ccc1F)S(=O)(=O)c1ccc(F)cc1 (stereo not shown) . Output melting point: 121 to 123 °C

The compound Cc1cc(C(=O)NCOCCO)ncc1C(c1cc(F)ccc1F)S(=O)(=O)c1ccc(F)cc1 (stereo not shown) showed melting point equal to 175 to 177 °C

The reported value for Cc1cc(C(=O)NCCCS(C)(=O)=O)ncc1C(c1cc(F)ccc1F)S(=O)(=O)c1ccc(F)cc1 (stereo not shown) in terms of melting point is 182 to 185 °C

Item: Cc1cc(C(=O)N2CCC(O)CC2)ncc1C(c1cc(F)ccc1F)S(=O)(=O)c1ccc(F)cc1 (stereo not shown) | melting point: 171 to 173 °C

Field melting point (entry Cc1cc(C(=O)NCCC[S+](C)[O-])ncc1C(c1cc(F)ccc1F)S(=O)(=O)c1ccc(F)cc1 (stereo not shown) ) reads 170 to 173 °C

Lab note: measured melting point of CCN(C)C(=O)c1cc(C)c(C(c2cc(F)ccc2F)S(=O)(=O)c2ccc(F)cc2)cn1 (stereo not shown) was 165 to 167 °C

Short answer for Cc1cc(C(=O)NCCO)ncc1C(c1cc(F)ccc1F)S(=O)(=O)c1ccc(F)cc1 (stereo not shown) : melting point was 153 to 154 °C

====

Examples of compounds with documented melting point follow.

Solved cases below.
compound	observedProperty	observedValue
Cc1cc(C(N)=O)ncc1C(c1c(F)ccc(F)c1F)S(=O)(=O)c1ccc2ccoc2c1 (stereo not shown)	melting point	237 to 240 °C
Cc1cc(C(=O)NCO)ncc1C(c1c(F)ccc(F)c1F)S(=O)(=O)c1ccc(C(F)F)nc1 (stereo not shown)	melting point	181 to 183 °C
Cc1cc(C(=O)N(C)CO)ncc1C(c1cc(F)ccc1F)S(=O)(=O)c1ccc(F)cc1 (stereo not shown)	melting point	184 to 186 °C

Recorded melting point (compound Cc1cc(C(N)=O)ncc1C(c1c(F)ccc(F)c1F)S(=O)(=O)c1ccc(C(F)(F)F)nc1 (stereo not shown) ): 237 to 238 °C

Notebook: Cc1cc(C(=O)N(C)C)ncc1C(c1cc(F)ccc1F)S(=O)(=O)c1ccc(F)cc1 (stereo not shown) , melting point read as 176 to 177 °C

# compound COc1ccc(S(=O)(=O)C(c2cnc(C(=O)O)cc2C)c2cc(F)ccc2F)cc1F (stereo not shown) ; its melting point = 196 to 197 °C

// recorded melting point for Cc1cc(C(=O)N2CCOCC2)ncc1C(c1cc(F)ccc1F)S(=O)(=O)c1ccc(F)cc1 (stereo not shown) : 165 to 167 °C

Lab book: melting point of Cc1cc(C(=O)NCS)ncc1C(c1cc(F)ccc1F)S(=O)(=O)c1ccc(F)cc1 (stereo not shown) noted as 190 to 193 °C

====

The following compounds are shown together with reported melting point values.

The reported value for Cc1cc(C(=O)NCCO)ncc1C(c1cc(F)ccc1F)S(=O)(=O)c1cc(F)cc(F)c1 (centres unmarked) [Example 100] in terms of melting point is 82 to 84 °C

The reported value for Cc1cc(C(=O)O)ncc1C(c1cc(F)ccc1F)S(=O)(=O)c1ccc(Cl)cc1 (centres unmarked) [Example 3] in terms of melting point is 208 to 209 °C

====

List of melting point values.

Consider the following illustrative entries.
compound	observedValue
Cc1cc(C(N)=O)ncc1C(c1c(F)ccc(F)c1F)S(=O)(=O)c1ccc(OC(F)(F)F)cc1 (stereo not drawn)	219 to 220 °C
CC(=O)NC(=O)c1cc(C)c(C(c2cc(F)ccc2F)S(=O)(=O)c2ccc(F)cc2)cn1 (stereo not drawn)	182 to 183 °C

Looking up Cc1cc(C(=O)N2CC(O)C2)ncc1C(c1cc(F)ccc1F)S(=O)(=O)c1ccc(F)cc1 (stereo not drawn) , I see its melting point listed as 219 to 221 °C

Quick note, melting point for COc1ccc(S(=O)(=O)C(c2cnc(C(=O)NCCO)cc2C)c2cc(F)ccc2F)cc1F (stereo not drawn) landed at 137 to 138 °C

Kindly note the recorded melting point for CONC(=O)c1cc(C)c(C(c2cc(F)ccc2F)S(=O)(=O)c2ccc(F)cc2)cn1 (stereo not drawn) , which is 231 to 234 °C

// field: melting point; key: CON(C)C(=O)c1cc(C)c(C(c2cc(F)ccc2F)S(=O)(=O)c2ccc(F)cc2)cn1 (stereo not drawn) ; value = 156 to 158 °C
